- EXPERIMENT: Cytotoxicity against human UACC62 cells assessed as cell growth inhibition at 10 uM after 48 hrs by SRB assay relative to control
- Type: functional
- CONDITION LABEL: UACC-62, 48 h, read-out: GI
Is inhibition of growth at 10 µM at least 30%? Then Satisfied. If not, Not satisfied.

>  <GIVEN SMILES>
COc1ccc(-c2cccc3c(=O)nc(N4CCOCC4)oc23)cc1

>  <ASSIGNED CLASS>
Not satisfied

$$$$
>  <GIVEN SMILES>
O=c1nc(N2CCOCC2)oc2c(-c3ccsc3)cccc12

>  <ASSIGNED CLASS>
Satisfied

$$$$
>  <GIVEN SMILES>
O=c1nc(N2CCOCC2)oc2c(-c3cccc4ccccc34)cccc12

>  <ASSIGNED CLASS>
Satisfied

$$$$
>  <GIVEN SMILES>
O=c1nc(N2CCOCC2)oc2c(-c3cccc4c3sc3ccccc34)cccc12

>  <ASSIGNED CLASS>
Satisfied

$$$$
>  <GIVEN SMILES>
O=c1nc(N2CCOCC2)oc2c(-c3cccc4c3oc3ccccc34)cccc12

>  <ASSIGNED CLASS>
Satisfied

$$$$
>  <GIVEN SMILES>
NC(=O)c1ccc(-c2cccc3c(=O)nc(N4CCOCC4)oc23)cc1

>  <ASSIGNED CLASS>
Not satisfied

$$$$
>  <GIVEN SMILES>
O=c1nc(N2CCOCC2)oc2ccc(-c3cccc4c3sc3ccccc34)cc12

>  <ASSIGNED CLASS>
Not satisfied

$$$$
>  <GIVEN SMILES>
O=c1nc(N2CCOCC2)oc2c(-c3cccs3)cccc12

>  <ASSIGNED CLASS>
Not satisfied

$$$$
